B1: FAM107A (parent)
chain: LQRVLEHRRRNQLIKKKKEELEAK

Variants of: B1
Protocol Description: protein stability index of a GFP-peptide fusion (GPS, HEK-293T) (PSI 1-6); higher = more stable;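 further: lentivirally expressed fusions sorted by FACS into six bins by GFP to DsRed ratio, PSI derived from sequencing read proportions per bin multiplied by bin number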
Condition Parameters: c terminus: a fixed tail appended
Exercise: for every item that follows, state its recorded protein stability index.
Give bare numbers.

Worked cases, answers included:
# Mutant Label, Measurement
records = [
    ("R9D", 3.96),
    ("E6K", 4.04),
    ("E6G", 3.98),
]

// batch mode: one protein stability index value per listed entry
1. R3S
2. L1T
3. K18L
4. V4G
5. L21G
6. R9E
7. E22M
8. L1W

OUTPUT:
4.04
4.72
2.81
3.52
3.63
3.97
2.83
2.56

Each of the following entries comes with a recorded value; kindly state protein stability index for each.
1. R3H
2. K17M
3. L21A
4. R8I
5. Q2P
6. E22A
7. Q12V

OUTPUT:
1: 4.12; 2: 3.16; 3: 3.88; 4: 2.42; 5: 3.98; 6: 3.44; 7: 3.45

Hi there! I need protein stability index for each item below, if you can.
1. L13I
2. L21Y
3. E19V
4. Q2M
5. E19Q
6. K17E
7. A23H
8. I14P

OUTPUT:
1. 3.76
2. 2.46
3. 2.7
4. 2.78
5. 2.56
6. 4.31
7. 2.76
8. 3.31
